# TGI listing for each entry below
tested on: DMS 114 small cell lung; assay: NCI tumour cell line growth inhibition, 48 h

# count of solved cases: 2
O=[N+]([O-])c1cccc(-c2oc(C=Nc3ccccc3)c([N+](=O)[O-])c2-c2cccc([N+](=O)[O-])c2)c1	> 100 µM
COc1cc(OC)c(C2CC=Cc3c(OC)cc(OC)c(OC)c32)cc1OC (stereo not drawn)	> 100 µM

Please fill in: TGI reported for C[C@]1(CO)CCC[C@@]2(C)C1CC[C@H]1CC3C[C@]12CC[C@]3(C)O (stereo partly drawn) = > 100 µM

====

test system: MALME-3M melanoma; experiment: NCI tumour cell line growth inhibition, 48 h
attribute measured: TGI

COc1cc(COC(=O)N(CC(=O)O)c2ccccc2)c([N+](=O)[O-])cc1OC	> 100 µM

Please fill in: TGI reported for CC(=O)OCC1OC(SC2OC(COC(C)=O)C(OC(C)=O)C(OC(C)=O)C2OC(C)=O)C(OC(C)=O)C(OC(C)=O)C1OC(C)=O (stereo unspecified) = > 100 µM

Please fill in: TGI reported for `CCCCN1C(=O)c2c(-c3sccc3N)sc(-c3sccc3N)c2C1=O` = > 100 µM

Please fill in: TGI reported for `C=C1CC/C=C(\C)C(=O)C[C@@H]2[C@@H]1CC2(C)C` = 10.5 µM

Please fill in: TGI reported for `CCn1cc(C(=O)O)c(=O)c2cc3c(cc21)S(=O)(=O)CC3` = > 100 µM

Please fill in: TGI reported for `c1csc(-c2cc(-c3cccs3)c(-c3cccs3)s2)c1` = > 100 µM

Please fill in: TGI reported for `O=C1c2ccccc2C(=O)c2c1ccc(C1C(=O)c3ccccc3C1=O)c2-c1c(C2C(=O)c3ccccc3C2=O)ccc2c1C(=O)c1ccccc1C2=O` = > 100 µM

Please fill in: TGI reported for CCC1CN2CCc3c([nH]c4ccccc34)C2C[C@@H]1CC(=O)N(C)C (stereo partly specified) = > 100 µM

Please fill in: TGI reported for `CCCCCCCCCCCCCP(=O)(O)OCC` = > 100 µM

Please fill in: TGI reported for `NCCCNC1(c2cc3ccccc3s2)CCCCC1` = 3.65 µM

====

tested on: SK-OV-3 ovarian; assay: NCI tumour cell line growth inhibition, 48 h; in the data active means GI50 below about 0.43 µM; inactive means the rest
Your answer must be one of the following: 1 (yes) = active, 0 (no) = inactive

Recorded results for 3 compounds are shown here.
CCC1CCc2nc3sc(C(=O)Nc4cccc(F)c4)c(N)c3cc2C1 (configuration not stated)	0 (no)
COc1cc(/C=C/C(=O)c2c(C)nc3ccccc3c2C)ccc1OCCCOc1cc2c(cc1OC)C(=O)N1CCC[C@H]1C=N2	1 (yes)
CC[C@@H](C(=O)[C@@H](C)[C@@H](O)[C@H](C)[C@@H]1O[C@@H]([C@@H](CC)C(=O)N(CC)CC)CC[C@@H]1C)C1O[C@]2(C=CC(=O)[C@]3(CC[C@@](C)([C@H]4CC[C@](O)(CC)[C@H](C)O4)O3)O2)[C@H](C)C[C@@H]1C (some centres not stated)	0 (no)

# outcome recorded in this test, key = `COc1ccc(-c2nc3ccccn3c2/C=C/C(=O)c2cc(OC)c(OC)c(OC)c2)cc1`
0 (no)

# outcome recorded in this test, key = `Cc1cc(N(CCNc2ccnc3cc(Cl)ccc23)Cc2ccco2)nc(Cl)n1`
0 (no)

# outcome recorded in this test, key = `Cc1c(COc2cc(OCc3cccc(C#N)c3)c(CN3C[C@H](O)C[C@@H]3C(=O)O)cc2Cl)cccc1-c1ccc2c(c1)OCCO2`
0 (no)

# outcome recorded in this test, key = `Fc1ccc(Nc2nc3nonc3nc2Nc2ccc(F)cc2)cc1`
1 (yes)
